# Histone deacetylase 1 (Homo sapiens, UniProt Q13547): IC50 values follow
# Sequence (Q13547 whole entry): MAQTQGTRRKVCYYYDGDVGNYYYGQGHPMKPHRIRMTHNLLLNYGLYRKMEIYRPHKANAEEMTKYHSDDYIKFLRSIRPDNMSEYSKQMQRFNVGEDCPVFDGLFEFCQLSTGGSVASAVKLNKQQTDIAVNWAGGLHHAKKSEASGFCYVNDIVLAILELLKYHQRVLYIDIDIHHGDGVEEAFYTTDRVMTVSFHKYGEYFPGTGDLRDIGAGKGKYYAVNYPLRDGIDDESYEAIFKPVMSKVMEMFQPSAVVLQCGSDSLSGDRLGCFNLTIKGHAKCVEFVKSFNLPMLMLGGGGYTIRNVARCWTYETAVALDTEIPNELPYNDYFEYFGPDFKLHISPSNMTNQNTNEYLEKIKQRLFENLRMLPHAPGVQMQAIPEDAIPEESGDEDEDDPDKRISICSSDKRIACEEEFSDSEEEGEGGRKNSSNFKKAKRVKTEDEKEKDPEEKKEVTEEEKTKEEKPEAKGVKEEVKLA

Look over these answered cases.
Nc1cc(F)ccc1NC(=O)CCCCCCN1C(=O)C/C(=C\c2ccccc2)C1=O	0.144 µM
COc1ccccc1/C=C1\CC(=O)N(CCCCCCC(=O)NO)C1=O	0.0126 µM
CCOc1ccccc1/C=C1\CC(=O)N(CCCCCCC(=O)NO)C1=O	0.0167 µM
O=C(CCCCCCN1C(=O)C/C(=C\c2cccc(Cl)c2)C1=O)NO	0.0188 µM
O=C(CCCCCCN1C(=O)C/C(=C\c2ccccc2O)C1=O)NO	0.0194 µM

Form: compound = O=C(CCCCCCN1C(=O)C/C(=C\c2cccc(F)c2)C1=O)NO ; IC50 = 0.0752 µM

Cc1ccc(/C=C2\CC(=O)N(CCCCCCC(=O)NO)C2=O)cc1 yielded IC50 of 0.0255 µM

Looking up O=C(CCCCCCN1C(=O)C/C(=C\c2cccs2)C1=O)NO , I see its IC50 listed as 0.0251 µM

IC50 recorded for this compound, O=C(CCCCCCN1C(=O)C/C(=C\c2ccc(C(F)(F)F)cc2)C1=O)NO , is 0.0338 µM

Recorded result, N#Cc1ccccc1/C=C1\CC(=O)N(CCCCCCC(=O)NO)C1=O , IC50: 0.0401 µM

// field: IC50; key: O=C(CCCCCCN1C(=O)C/C(=C\c2cccc(I)c2)C1=O)NO ; value = 0.0287 µM

----------
assay: AUC (0 to infinity) in Sprague-Dawley rat at 10 mg/kg, po measured upto 24 hrs by LC-MS/MS analysis; type: ADME, organism-based; settings: in vivo
Measure Name: AUC(0-inf) (ng·h/mL)
The answer is to be given in ng·h/mL; state only the numeric part.

compound COc1ccccc1/C=C1\CC(=O)N(CCCCCCC(=O)NO)C1=O , AUC(0-inf) observed: 3800

----------
test: Volume of distribution in Sprague-Dawley rat at 2 mg/kg, iv measured upto 24 hrs by LC-MS/MS analysis; assay type: ADME, organism-based; details: in vivo
Measure Name: Vd (L/kg)
A number alone suffices; assume L/kg.

Vd in this record for COc1ccccc1/C=C1\CC(=O)N(CCCCCCC(=O)NO)C1=O : 4.63

----------
tested on: PC-3; test: Antiproliferative activity against human PC-3 cells incubated for 96 hrs by MTT assay; format: functional, cell-based; conditions: PC-3, 96 h
Labelling: IC50 reported below 1000 nM becomes true (1); at or above becomes false (0).

// known answers, use as guide
O=C(CCCCCCN1C(=O)C/C(=C\c2ccccc2O)C1=O)NO	false (0)
COc1ccc(Br)cc1/C=C1\CC(=O)N(CCCCCCC(=O)NO)C1=O	false (0)
O=C(CCCCCCN1C(=O)C/C(=C\c2cccc(I)c2)C1=O)NO	false (0)

Q: Problem: For the molecule Nc1cc(F)ccc1NC(=O)CCCCCN1C(=O)C/C(=C\c2ccccc2)C1=O , is IC50 under 1000 nM?
Result: false (0)

Q: # check: IC50 < 1000 nM for COc1ccc(/C=C2\CC(=O)N(CCCCCCC(=O)NO)C2=O)cc1
Result: true (1)

----------
assay: Half life in Sprague-Dawley rat at 2 mg/kg, iv measured upto 24 hrs by LC-MS/MS analysis; type: ADME, organism-based; conditions: in vivo
Measure Name: half-life (h)
Kindly answer with a numeric value in h, unit omitted.

Form field half-life, entry COc1ccccc1/C=C1\CC(=O)N(CCCCCCC(=O)NO)C1=O : 3.12

----------
tested on: PC-3; assay: Antiproliferative activity against human PC-3 cells incubated for 96 hrs by MTT assay; type: functional, cell-based; conditions: PC-3, 96 h
Quick list: IC50 per entry.
Give the value, in units of nM, as a plain number.

Recorded results for 8 compounds are shown here.
COc1ccc(/C=C2\CC(=O)N(CCCCCCC(=O)NO)C2=O)cc1OC	880
O=C(CCCCCCN1C(=O)C/C(=C\c2cccs2)C1=O)NO	910
O=C(CCCCCN1C(=O)C/C(=C\c2ccccc2)C1=O)NO	4270
N#Cc1ccccc1/C=C1\CC(=O)N(CCCCCCC(=O)NO)C1=O	870
COc1cccc(/C=C2\CC(=O)N(CCCCCCC(=O)NO)C2=O)c1	920
O=C(CCCCCCN1C(=O)C/C(=C\c2ccc(Cl)cc2)C1=O)NO	890
Nc1cc(F)ccc1NC(=O)c1ccc(CNC(=O)/C=C/c2cccnc2)cc1	5770
O=C(NO)c1ccc(CN2C(=O)C/C(=C\c3ccccc3)C2=O)cc1	7820

Form: compound = C=C(CC(N)=O)C(N)=O ; IC50 = 9990

Measured IC50, O=C(CCCCCCN1C(=O)C/C(=C\c2cccc(Br)c2)C1=O)NO : 1060

----------
The following compounds have recorded pIC50 on Histone deacetylase 1 (Homo sapiens).
Lab note: report pIC50 as minus log10 of the concentration in molar units, number only.

Reading of pIC50 for COc1cc(/C=C2\CC(=O)N(CCCCCCC(=O)NO)C2=O)cc(OC)c1OC with Histone deacetylase 1 (Homo sapiens): 7.56

----------
system: PC-3; experiment: Antiproliferative activity against human PC-3 cells incubated for 96 hrs by MTT assay; format: functional, cell-based; settings: PC-3, 96 h
Measure Name: pIC50
In plain terms, pIC50 is the concentration in mol/L turned into minus its base-10 logarithm.

The molecule listed as CCOc1ccccc1/C=C1\CC(=O)N(CCCCCCC(=O)NO)C1=O shows pIC50 equal to 6.05

CN(C)c1ccc(/C=C2\CC(=O)N(CCCCCCC(=O)NO)C2=O)cc1 has a reported pIC50 of 5.76

Reported pIC50 ( O=C(CCCCCCN1C(=O)C/C(=C\c2ccc(C(F)(F)F)cc2)C1=O)NO ) = 5.74

----------
test: Clearance in Sprague-Dawley rat at 2 mg/kg, iv measured upto 24 hrs by LC-MS/MS analysis; type: ADME, organism-based; conditions: in vivo
Measure Name: clearance (mL/min/kg)
Output spec: scalar in mL/min/kg, unitless text.

Item: COc1ccccc1/C=C1\CC(=O)N(CCCCCCC(=O)NO)C1=O | clearance: 26.2

----------
biological target: Histone deacetylase 2 (Homo sapiens, UniProt Q92769)
Sequence (Q92769 whole entry): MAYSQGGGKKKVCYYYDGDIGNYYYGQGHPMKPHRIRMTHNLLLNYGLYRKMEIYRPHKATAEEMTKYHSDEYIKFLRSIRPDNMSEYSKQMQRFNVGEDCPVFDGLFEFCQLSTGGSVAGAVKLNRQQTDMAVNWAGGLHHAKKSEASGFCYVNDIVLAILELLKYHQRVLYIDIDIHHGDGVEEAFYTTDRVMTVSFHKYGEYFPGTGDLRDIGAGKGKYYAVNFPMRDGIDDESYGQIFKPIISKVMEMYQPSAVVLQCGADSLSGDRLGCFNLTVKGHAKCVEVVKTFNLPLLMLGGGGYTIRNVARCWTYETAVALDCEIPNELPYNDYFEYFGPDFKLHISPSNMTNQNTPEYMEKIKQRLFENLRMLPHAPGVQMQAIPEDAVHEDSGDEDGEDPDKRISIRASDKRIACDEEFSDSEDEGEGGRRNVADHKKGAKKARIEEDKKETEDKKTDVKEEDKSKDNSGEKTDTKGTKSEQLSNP
Measure Name: IC50

// IC50 lookup, molecule = COc1ccccc1/C=C1\CC(=O)N(CCCCCCC(=O)NO)C1=O , result: 14.1 nM

----------
Target: Histone deacetylase 11 (Homo sapiens)
Sequence (Q96DB2 whole entry): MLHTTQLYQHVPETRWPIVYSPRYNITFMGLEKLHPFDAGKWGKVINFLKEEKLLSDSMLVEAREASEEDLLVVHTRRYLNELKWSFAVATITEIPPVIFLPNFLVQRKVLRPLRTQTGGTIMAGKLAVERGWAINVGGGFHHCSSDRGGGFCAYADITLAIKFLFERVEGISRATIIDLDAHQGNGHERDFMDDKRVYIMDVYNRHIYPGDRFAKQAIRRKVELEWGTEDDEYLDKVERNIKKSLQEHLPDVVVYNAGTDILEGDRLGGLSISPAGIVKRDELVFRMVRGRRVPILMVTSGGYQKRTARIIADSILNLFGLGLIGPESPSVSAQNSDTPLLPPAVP
pIC50: −log10 of the molar value.
Measure Name: pIC50

COc1ccccc1/C=C1\CC(=O)N(CCCCCCC(=O)NO)C1=O	< 5.30

Kindly review the next molecule as well.
# pIC50 (molecule: Nc1cc(F)ccc1NC(=O)c1ccc(CNC(=O)/C=C/c2cccnc2)cc1 ) is < 5.30

----------
Target: Histone deacetylase 7 (Homo sapiens, UniProt Q8WUI4)
Sequence (Q8WUI4 whole entry): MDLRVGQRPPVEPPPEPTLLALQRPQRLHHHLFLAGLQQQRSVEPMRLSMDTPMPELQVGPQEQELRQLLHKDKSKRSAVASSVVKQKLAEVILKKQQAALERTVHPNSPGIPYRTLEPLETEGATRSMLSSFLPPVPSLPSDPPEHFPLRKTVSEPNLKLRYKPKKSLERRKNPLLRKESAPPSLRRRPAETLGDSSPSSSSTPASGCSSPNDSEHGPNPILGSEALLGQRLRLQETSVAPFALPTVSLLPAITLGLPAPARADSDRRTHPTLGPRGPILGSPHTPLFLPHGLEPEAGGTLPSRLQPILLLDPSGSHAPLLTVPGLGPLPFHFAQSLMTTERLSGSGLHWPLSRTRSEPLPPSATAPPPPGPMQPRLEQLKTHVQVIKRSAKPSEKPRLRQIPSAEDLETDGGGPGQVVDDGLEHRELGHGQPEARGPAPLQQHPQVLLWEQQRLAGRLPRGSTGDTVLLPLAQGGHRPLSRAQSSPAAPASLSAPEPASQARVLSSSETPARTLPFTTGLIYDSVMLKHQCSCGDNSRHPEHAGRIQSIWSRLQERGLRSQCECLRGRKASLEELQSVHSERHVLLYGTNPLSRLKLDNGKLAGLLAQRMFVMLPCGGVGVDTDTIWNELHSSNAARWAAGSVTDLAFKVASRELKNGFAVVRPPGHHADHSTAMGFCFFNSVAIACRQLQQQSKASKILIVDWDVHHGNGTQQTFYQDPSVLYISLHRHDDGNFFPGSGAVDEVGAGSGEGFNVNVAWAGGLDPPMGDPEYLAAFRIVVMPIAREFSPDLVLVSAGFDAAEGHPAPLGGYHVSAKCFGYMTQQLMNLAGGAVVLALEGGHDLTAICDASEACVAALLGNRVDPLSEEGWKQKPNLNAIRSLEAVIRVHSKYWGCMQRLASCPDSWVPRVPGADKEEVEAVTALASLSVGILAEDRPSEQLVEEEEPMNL
Measure Name: IC50

Looking up COc1ccccc1/C=C1\CC(=O)N(CCCCCCC(=O)NO)C1=O , I see its IC50 listed as > 5 µM

Just for reference, ChEMBL document CHEMBL5512640 is where these values come from.
